FYI, the data here is from the supplement of paper PMC9492666.

- System: MDA-MB-231
- assayComment: relative cell viability, compound alone, vs DMSO (fraction of DMSO control); higher = less growth inhibition;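 also: viability read out with the CCK-8 kit in 96-well plates, screening a set of 303 compounds acting on lipid metabolism targets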
- testSettings: 72 h
endpointLabel: relative cell viability
The reply should be a number, written without any unit.

CCCCCCCCCCC#CC#CCCCCCCCCC(=O)O [10,12-Tricosadiynoic acid]    0.911

Continue with the compound presented below.
Note down relative cell viability recorded for Cc1c(C(=O)Nc2ccc(CO)cc2)nnn1Cc1ccc(Cl)c(Cl)c1
0.95

* * *

- Test system: HCC1937
- assayComment: relative cell viability, compound alone, vs DMSO (fraction of DMSO control); higher = less growth inhibition
- testSettings: 72 h
Collected relative cell viability values appear next to each entry.
Quick one: just the number, no unit, thanks!

Known relative cell viability results, listed for orientation:
O=C(c1ccc(NS(=O)(=O)c2cccc3cccnc23)cc1)N1CCN(CC2CC2)CC1    0.95
O=C(Nc1ccc(C(O)(C(F)(F)F)C(F)(F)F)cc1)c1ccccc1Cl    1.05
C=CC[S+]([O-])C[C@H](N)C(=O)O (stereo not given in full)    1

Give the reported value of relative cell viability for this record: CCC(C)(Oc1ccc(C2(c3ccc(OC(C)(CC)C(=O)O)cc3)CCCCC2)cc1)C(=O)O (stereo not given) [Clinofibrate]
0.901

Kindly indicate its recorded relative cell viability. Item: N[C@@H](Cc1c[nH]cn1)C(=O)O
1.05
